Taken from ChEMBL document CHEMBL3596117.

Some compounds, each annotated with its measured inhibition.
# system: Aurora kinase B (Homo sapiens)
# Sequence (Q96GD4 whole entry): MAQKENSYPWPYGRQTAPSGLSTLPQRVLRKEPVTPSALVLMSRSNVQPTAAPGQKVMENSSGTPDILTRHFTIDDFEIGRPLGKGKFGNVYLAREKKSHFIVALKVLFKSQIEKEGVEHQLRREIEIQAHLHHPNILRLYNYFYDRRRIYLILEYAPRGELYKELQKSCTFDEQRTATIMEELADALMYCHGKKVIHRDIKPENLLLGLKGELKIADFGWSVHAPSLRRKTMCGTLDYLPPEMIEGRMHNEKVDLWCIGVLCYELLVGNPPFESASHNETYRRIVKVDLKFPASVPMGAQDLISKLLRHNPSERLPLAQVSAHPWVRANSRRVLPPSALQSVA
# test summary: Inhibition of aurora B kinase (unknown origin) at 10 uM using ATP and SB2 substrate incubated at 37 degC for 2 hrs by kinase-Glo reagent based luminescent kinase assay
API: value field is a number in %; no unit string.

test smiles: C=CCNC(=S)Nc1cc2c(cc1N(CCC)CCC)/C(=C/c1ccc3c(c1)OCO3)C(=O)N2
readout value: 31

// moving on: another record for inhibition
# return recorded inhibition for input `CCN(CC)c1cc2c(cc1NC(C)=O)NC(=O)/C2=C\c1ccc[nH]1`
83

====

# system: UniProtKB Q96GD4
test readout: IC50 (µM)
Answer with a number only, understood to be in µM.

Entry `CCN(CC)c1cc2c(cc1NC(C)=O)NC(=O)/C2=C\c1ccc[nH]1` needs its IC50 filled in; supply it.
2.5
